tested on: IGR-37 (Melanoma); test: combination Emax (second highest fraction inhibited in the dose matrix, 72 h); higher = more inhibition; extreme values may be limits of the assay
Reported values of combination Emax for individual entries
# print the numeric value only

Answered cases to consult:
| molecule | combination Emax |
| --- | --- |
| N#Cc1cnc(Nc2cc(NC[C@H]3CNCCO3)c(C(F)(F)F)cn2)cn1 [SRA737] + CCc1c2c(nc3ccc(O)cc13)-c1cc3c(c(=O)n1C2)COC(=O)[C@]3(O)CC [SN-38] (first compound max 10 µM, 7x7, partner max 0.3 µM) | 0.818 |
| NC1(C(=O)N[C@@H](CCO)c2ccc(Cl)cc2)CCN(c2ncnc3[nH]ccc23)CC1 [Capivasertib] + Cn1cnc2c(F)c(Nc3ccc(Br)cc3Cl)c(C(=O)NOCCO)cc21 [Selumetinib] (first compound max 10 µM, 7x7, partner max 10 µM) | 0.897 |
| NC1(C(=O)N[C@@H](CCO)c2ccc(Cl)cc2)CCN(c2ncnc3[nH]ccc23)CC1 [Capivasertib] + CC(C)n1c(=O)n(C)c2cnc3cc(F)c(-c4ccc(OCCCN5CCCCC5)nc4)cc3c21 [AZD1390] (first compound max 10 µM, 7x7, partner max 0.3 µM) | 0.447 |
| CCc1c2c(nc3ccc(O)cc13)-c1cc3c(c(=O)n1C2)COC(=O)[C@]3(O)CC [SN-38] + O=C(c1cc(Cc2n[nH]c(=O)c3ccccc23)ccc1F)N1CCN(C(=O)C2CC2)CC1 [Olaparib] (first compound max 0.3 µM, 7x7, partner max 10 µM) | 0.863 |
| Cn1cnc2c(F)c(Nc3ccc(Br)cc3Cl)c(C(=O)NOCCO)cc21 [Selumetinib] + C[C@@H]1COCCN1C2=NC(=NC(=C2)C3(CC3)[S@](=N)(=O)C)C4=C5C=CNC5=NC=C4 [AZD6738] (first compound max 10 µM, 7x7, partner max 10 µM) | 0.864 |

For the record CCc1c2c(nc3ccc(O)cc13)-c1cc3c(c(=O)n1C2)COC(=O)[C@]3(O)CC [SN-38] + CN(C)CCCOc1ccc(-c2ccc3ncc4c(c3c2)n(C2CCOCC2)c(=O)n4C)cn1 [AZD0156] (first compound max 0.3 µM, 7x7, partner max 1 µM) , what value of combination Emax is listed for IGR-37 (Melanoma)?
0.826

Next up: CN(CCO)CC[C@H](CSc1ccccc1)Nc1ccc(S(=O)(=O)NC(=O)c2ccc(N3CCC([C@@H](O)c4ccccc4-c4ccc(Cl)cc4)CC3)cc2)cc1S(=O)(=O)C(F)(F)F [AZD4320] + CS(=O)(=O)CCNCc1ccc(-c2ccc3ncnc(Nc4ccc(OCc5cccc(F)c5)c(Cl)c4)c3c2)o1 [Lapatinib] (first compound max 1 µM, 7x7, partner max 10 µM)
0.282

====

Catalogue of compounds with associated combination Emax
tested on: U-2-OS (Osteosarcoma); experiment: combination Emax (second highest fraction inhibited in the dose matrix, 72 h); higher = more inhibition; extreme values may be limits of the assay
Keep the answer to the number alone.

Solved cases below.
| compound | reading |
| --- | --- |
| CN(CCO)CC[C@H](CSc1ccccc1)Nc1ccc(S(=O)(=O)NC(=O)c2ccc(N3CCC([C@@H](O)c4ccccc4-c4ccc(Cl)cc4)CC3)cc2)cc1S(=O)(=O)C(F)(F)F [AZD4320] + CC(=O)O[C@H]1C(=O)[C@@]2(C)[C@H]([C@H](OC(=O)c3ccccc3)[C@]3(O)C[C@H](OC(=O)[C@H](O)[C@@H](NC(=O)c4ccccc4)c4ccccc4)C(C)=C1C3(C)C)[C@]1(OC(C)=O)CO[C@@H]1C[C@@H]2O [Paclitaxel] (first compound max 1 µM, 7x7, partner max 3 µM) | 0.922 |
| COc1nnc2ccc(N3CCC(c4ccc(OCCN5CCN(C)C(=O)[C@H]5C)cc4)CC3)nn12 [AZD5153] + C=CCn1c(=O)c2cnc(Nc3ccc(N4CCN(C)CC4)cc3)nc2n1-c1cccc(C(C)(C)O)n1 [AZD1775] (first compound max 1 µM, partner max 1 µM) | 0.635 |

We now examine a further compound.
Recorded combination Emax for Cc1cc2ncnn2cc1Nc1ncc2c(n1)n(C1CCOCC1)c(=O)n2C [AZD7648] + C[C@@H]1COCCN1C2=NC(=NC(=C2)C3(CC3)[S@](=N)(=O)C)C4=C5C=CNC5=NC=C4 [AZD6738] (first compound max 10 µM, 7x7, partner max 10 µM) , please?
0.675

====

system: KARPAS-422 (B-Cell Non-Hodgkin's Lymphoma); experiment: combination Emax (second highest fraction inhibited in the dose matrix, 72 h); higher = more inhibition; extreme values may be limits of the assay
# combination Emax annotations
Reply with the value as a number alone.

| compound | combination Emax |
| --- | --- |
| Cc1cc2ncnn2cc1Nc1ncc2c(n1)n(C1CCOCC1)c(=O)n2C [AZD7648] + CN(C)CCCOc1ccc(-c2ccc3ncc4c(c3c2)n(C2CCOCC2)c(=O)n4C)cn1 [AZD0156] (first compound max 10 µM, 7x7, partner max 1 µM) | 0.479 |
| C[C@@H]1COCCN1c1cc(C2([S@](C)(=N)=O)CC2)nc(-c2ccnc3[nH]ccc23)n1 [AZD6738] + Nc1ccn([C@@H]2O[C@H](CO)[C@@H](O)C2(F)F)c(=O)n1 [Gemcitabine] (first compound max 10 µM, 7x7, partner max 0.3 µM) | 0.749 |
| Cn1cnc2c(F)c(Nc3ccc(Br)cc3Cl)c(C(=O)NOCCO)cc21 [Selumetinib] + C=CCn1c(=O)c2cnc(Nc3ccc(N4CCN(C)CC4)cc3)nc2n1-c1cccc(C(C)(C)O)n1 [AZD1775] (first compound max 10 µM, partner max 1 µM) | 0.623 |

Request body: readout combination Emax, system KARPAS-422 (B-Cell Non-Hodgkin's Lymphoma), query C[C@@H]1COCCN1c1cc(C2([S@](C)(=N)=O)CC2)nc(-c2ccnc3[nH]ccc23)n1 [AZD6738] + C1CC(C1)(C(=O)[O-])C(=O)[O-].N.N.[Pt+2] [Carboplatin] (first compound max 10 µM, 7x7, partner max 10 µM) . Return the value.
0.434

====

test system: Hs-445 (Non-Cancerous); assay: Bliss excess, mean over the matrix (fraction); higher = more synergy;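 further: after 72 h of two-drug dosing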
measured_attribute: Bliss excess
Reply briefly: the number, and no unit.

| compound | Bliss excess |
| --- | --- |
| Cc1nc(Nc2ncc(C(=O)Nc3c(C)cccc3Cl)s2)cc(N2CCN(CCO)CC2)n1 [Dasatinib] + CC(=O)Nc1cccc(-n2c(=O)n(C3CC3)c(=O)c3c(Nc4ccc(I)cc4F)n(C)c(=O)c(C)c32)c1 [Trametinib] (first compound max 2 µM, 7x7, partner max 1 µM) | -0.0873 |

Shifting focus to the compound that follows.
I'd like to know its Bliss excess. The compound in question is NC1(C(=O)N[C@@H](CCO)c2ccc(Cl)cc2)CCN(c2ncnc3[nH]ccc23)CC1 [Capivasertib] + Cn1cnc2c(F)c(Nc3ccc(Br)cc3Cl)c(C(=O)NOCCO)cc21 [Selumetinib] (first compound max 10 µM, 7x7, partner max 10 µM)
0.0479

====

tested on: SK-MG-1 (Low Grade Glioma); test: combination Emax (second highest fraction inhibited in the dose matrix, 72 h); higher = more inhibition; extreme values may be limits of the assay
Listed here are compounds together with their documented combination Emax.
Please respond with just the number, no unit label.

| compound | reading |
| --- | --- |
| C[C@@H](c1ccc2nccn2c1)n1nnc2ncc(-c3cnn(C)c3)nc21 [Savolitinib] + CN(CC[C@H](CSC1=CC=CC=C1)NC2=C(C=C(C=C2)S(=O)(=O)NC(=O)C3=CC=C(C=C3)N4CCC(CC4)[C@H](C5=CC=CC=C5C6=CC=C(C=C6)Cl)O)S(=O)(=O)C(F)(F)F)CCO [AZD4320] (first compound max 1 µM, 7x7, partner max 1 µM) | 0.152 |

Consider the compound CC1(C)CCC(CN2CCN(c3ccc(C(=O)NS(=O)(=O)c4ccc(NCC5CCOCC5)c([N+](=O)[O-])c4)c(Oc4cnc5[nH]ccc5c4)c3)CC2)=C(c2ccc(Cl)cc2)C1 [Venetoclax] + C[C@@H]1COCCN1C2=NC(=NC(=C2)C3(CC3)[S@](=N)(=O)C)C4=C5C=CNC5=NC=C4 [AZD6738] (first compound max 1 µM, 7x7, partner max 10 µM) and give its measured combination Emax.
0.535

====

tested on: GI-ME-N (Neuroblastoma); assay: combination Emax (second highest fraction inhibited in the dose matrix, 72 h); higher = more inhibition; extreme values may be limits of the assay
# combination Emax per record follows
No unit in the answer, only the number.

Here's what some known entries look like.
| compound | combination Emax |
| --- | --- |
| CC(=O)c1c(C)c2cnc(Nc3ccc(N4CCNCC4)cn3)nc2n(C2CCCC2)c1=O [Palbociclib] + Cc1c2c(nn1C)CSCc1cc(n(C)n1)CSc1cc(c3ccccc3c1)OCCCc1c(C(=O)O)n(C)c3c-2c(Cl)ccc13 [AZD5991] (first compound max 10 µM, 7x7, partner max 1 µM) | 0.332 |
| Cc1c2c(nn1C)CSCc1cc(n(C)n1)CSc1cc(c3ccccc3c1)OCCCc1c(C(=O)O)n(C)c3c-2c(Cl)ccc13 [AZD5991] + C[C@@H]1COCCN1C2=NC(=NC(=C2)C3(CC3)[S@](=N)(=O)C)C4=C5C=CNC5=NC=C4 [AZD6738] (first compound max 1 µM, 7x7, partner max 10 µM) | 0.431 |

Which combination Emax value is on record for Cn1cnc2c(F)c(Nc3ccc(Br)cc3Cl)c(C(=O)NOCCO)cc21 [Selumetinib] + C[C@@H]1COCCN1C2=NC(=NC(=C2)C3(CC3)[S@](=N)(=O)C)C4=C5C=CNC5=NC=C4 [AZD6738] (first compound max 10 µM, 7x7, partner max 10 µM) ?
0.312

Entry CN(CCO)CC[C@H](CSc1ccccc1)Nc1ccc(S(=O)(=O)NC(=O)c2ccc(N3CCC([C@@H](O)c4ccccc4-c4ccc(Cl)cc4)CC3)cc2)cc1S(=O)(=O)C(F)(F)F [AZD4320] + C=CCn1c(=O)c2cnc(Nc3ccc(N4CCN(C)CC4)cc3)nc2n1-c1cccc(C(C)(C)O)n1 [AZD1775] (first compound max 1 µM, partner max 1 µM) please
0.334

Now the compound COc1nnc2ccc(N3CCC(c4ccc(OCCN5CCN(C)C(=O)[C@H]5C)cc4)CC3)nn12 [AZD5153] + Cc1c2c(nn1C)CSCc1cc(n(C)n1)CSc1cc(c3ccccc3c1)OCCCc1c(C(=O)O)n(C)c3c-2c(Cl)ccc13 [AZD5991] (first compound max 1 µM, 7x7, partner max 1 µM)
0.377

What do we get for CC(=O)Nc1cccc(-n2c(=O)n(C3CC3)c(=O)c3c(Nc4ccc(I)cc4F)n(C)c(=O)c(C)c32)c1 [Trametinib] + Cc1nc(-c2cn3c(n2)-c2ccc(-c4cnn(C(C)(C)C(N)=O)c4)cc2OCC3)n(C(C)C)n1 [Taselisib] (first compound max 1 µM, 7x7, partner max 10 µM) ?
0.77

Another: CS(=O)(=O)CCNCc1ccc(-c2ccc3ncnc(Nc4ccc(OCc5cccc(F)c5)c(Cl)c4)c3c2)o1 [Lapatinib] + C[C@@H](Oc1cc(-c2cnn(C3CCNCC3)c2)cnc1N)c1c(Cl)ccc(F)c1Cl [Crizotinib] (first compound max 10 µM, 7x7, partner max 10 µM)
0.392

Please give the result for NC1(C(=O)N[C@@H](CCO)c2ccc(Cl)cc2)CCN(c2ncnc3[nH]ccc23)CC1 [Capivasertib] + CC(C)n1c(=O)n(C)c2cnc3cc(F)c(-c4ccc(OCCCN5CCCCC5)nc4)cc3c21 [AZD1390] (first compound max 10 µM, 7x7, partner max 0.3 µM) too.
0.335

Please do the same for NC1(C(=O)N[C@@H](CCO)c2ccc(Cl)cc2)CCN(c2ncnc3[nH]ccc23)CC1 [Capivasertib] + Cn1cnc2c(F)c(Nc3ccc(Br)cc3Cl)c(C(=O)NOCCO)cc21 [Selumetinib] (first compound max 10 µM, 7x7, partner max 10 µM) as well.
0.377
